# maps each entry to its RP-LC retention time
# protocol-text: gradient 5% acetonitrile 3 min, to 50% in 2 min, to 85% in 15 min, held 3 min, 100 µL/min
# condition: column: Zorbax Extend-C18 2.1 x 50 mm; eluents: water / acetonitrile, 0.1% formic acid
Could you give me the number in s? Just the number is fine.

The cases that follow already have their RP-LC retention time on record.
{"columns": ["molecule", "RP-LC retention time, s"],
 "data": [
  ["CCOC(=O)Cc1csc(NC(=O)C2CCCN(c3ncnc4c3nc3n4CCCCC3)C2)n1 (stereo not given)", 810],
  ["COc1ccc(C(=O)N2CCC3(CC2)NC(=O)c2ccc(Cl)cc2N3)cc1OC", 692],
  ["Cc1cnc(C(=O)N2C[C@@H](Oc3cccnc3)C[C@H]2C(=O)NC2CC2)cn1", 554],
  ["O=C(Cn1c(=O)c2nncn2c2ncccc21)N1CCN(c2cccc(Cl)c2)CC1", 750]
]}

# ---- query molecule ----
So, CN1CCN(S(=O)(=O)c2ccc3nn(Cc4c(F)cccc4Cl)c(=O)n3c2)CC1 ? Its RP-LC retention time was 642
